Attribution: patent US20140148464A1

# assayProcedure: Rat oral pharmacokinetics (plasma eicosapentaenoic acid after oral gavage)
# Type: in vivo
# testParameters: both sexes, rat; Sprague-Dawley rats, oral gavage 40 mg/kg in 0.5% carboxymethyl cellulose; analyte EPA in plasma; 0-24 h; mean of 6 rats
reportedEndpoint: AUC(0-t)

Query :: Fill blank: measured AUC(0-t) of the molecule CC/C=C\C/C=C\C/C=C\C/C=C\C/C=C\CCCC(=O)O [Piperazine di-eicosapentaenoate] is ____.
Result :: 135 µg·h/mL

---

# assayProcedure: Rat oral pharmacokinetics (plasma eicosapentaenoic acid after oral gavage)
# Assay type: in vivo
# testParameters: both sexes, rat; Sprague-Dawley rats, oral gavage 40 mg/kg in 0.5% carboxymethyl cellulose; analyte EPA in plasma; mean of 6 rats; read-out: Cmax
reportedEndpoint: Cmax
The answer should read as a number with its unit following.

Query :: So what does the record say about Cmax for CC/C=C\C/C=C\C/C=C\C/C=C\C/C=C\CCCC(=O)O [Piperazine di-eicosapentaenoate] ?
Result :: 28.2 µg/mL
